In this section we review reported inhibition values for a set of compounds.
molecular target: Serine/threonine-protein kinase PknG (Mycobacterium tuberculosis); test: Inhibition of Mycobacterium tuberculosis recombinant PKnG expressed in Escherichia coli BL21 (DE3) cells using myelin basic protein substrate at 3.125 uM by luciferase activity based ADP-Glo-luminescent kinase assay
Could you give me the number in %? Just the number is fine.

Some compounds with recorded inhibition:
> print(dat)
                           substance.smiles                             target.entity  result.units  reported.result
1  Nc1nc(-c2ccc(Cl)cc2)cc(-c2ccc(OCc3cn(Cc4ccccc4)nn3)cc2O)n1  Serine/threonine-protein kinase PknG (Mycobacterium tuberculosis)             %                4
2  Nc1nc(-c2ccc(OCc3cn(Cc4ccc(Br)cc4)nn3)cc2O)cc(-c2cccc3ccccc23)n1  Serine/threonine-protein kinase PknG (Mycobacterium tuberculosis)             %                0

Give its inhibition value. Item: Nc1nc(-c2ccccc2)cc(-c2ccc(OCc3cn(Cc4ccccc4)nn3)cc2O)n1 5

Give its inhibition value. Item: Nc1nc(-c2ccc(Br)cc2)cc(-c2ccc(OCc3cn(Cc4ccc(Br)cc4)nn3)cc2O)n1 5

Give its inhibition value. Item: CC(C)c1ccc(-c2cc(-c3ccc(OCc4cn(Cc5ccccc5)nn4)cc3O)nc(N)n2)cc1 0

====

target: Serine/threonine-protein kinase PknG (Mycobacterium tuberculosis) (UniProt P9WI73); experiment: Inhibition of Mycobacterium tuberculosis recombinant PKnG expressed in Escherichia coli BL21 (DE3) cells using myelin basic protein substrate at 3.125 uM by luciferase activity based ADP-Glo-luminescent kinase assay
Sequence (P9WI73 whole entry): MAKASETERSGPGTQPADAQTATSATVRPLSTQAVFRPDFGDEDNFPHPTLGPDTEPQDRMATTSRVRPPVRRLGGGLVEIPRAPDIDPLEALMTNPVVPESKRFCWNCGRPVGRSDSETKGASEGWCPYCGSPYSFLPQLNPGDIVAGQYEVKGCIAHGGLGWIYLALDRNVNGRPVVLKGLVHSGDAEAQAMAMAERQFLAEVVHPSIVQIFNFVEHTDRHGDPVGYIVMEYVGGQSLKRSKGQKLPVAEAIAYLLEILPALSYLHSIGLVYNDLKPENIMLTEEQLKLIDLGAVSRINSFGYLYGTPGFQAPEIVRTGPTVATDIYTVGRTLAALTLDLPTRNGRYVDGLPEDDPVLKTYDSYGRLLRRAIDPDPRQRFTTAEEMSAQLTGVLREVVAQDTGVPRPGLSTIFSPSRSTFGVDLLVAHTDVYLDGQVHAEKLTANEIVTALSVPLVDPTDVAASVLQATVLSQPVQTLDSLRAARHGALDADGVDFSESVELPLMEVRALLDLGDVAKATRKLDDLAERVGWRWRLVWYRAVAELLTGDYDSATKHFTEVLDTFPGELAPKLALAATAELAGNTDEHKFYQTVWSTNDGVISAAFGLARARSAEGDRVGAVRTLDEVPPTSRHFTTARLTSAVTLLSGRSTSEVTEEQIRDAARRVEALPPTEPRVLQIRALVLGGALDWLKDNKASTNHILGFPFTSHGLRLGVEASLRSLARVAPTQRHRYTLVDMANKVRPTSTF
In this section we review reported inhibition values for a set of molecules.
Could you give me the number in %? Just the number is fine.

> print(dat)
                           substance.smiles                             target.entity  observable  result.units  reported.result
1  CCCCCCn1cc(COc2ccc(-c3cc(-c4ccc(Cl)cc4)nc(N)n3)c(O)c2)nn1  Serine/threonine-protein kinase PknG (Mycobacterium tuberculosis) (UniProt P9WI73)  inhibition             %                0
2  Nc1nc(-c2ccc(OCc3cn(Cc4ccccc4)nn3)cc2O)cc(-c2cccc3ccccc23)n1  Serine/threonine-protein kinase PknG (Mycobacterium tuberculosis) (UniProt P9WI73)  inhibition             %                0
3  COc1ccc(-c2cc(-c3ccc(OCc4cn(Cc5ccccc5)nn4)cc3O)nc(N)n2)cc1  Serine/threonine-protein kinase PknG (Mycobacterium tuberculosis) (UniProt P9WI73)  inhibition             %                6

Below: the item to evaluate.
Give its inhibition value. Item: CCCCCCn1cc(COc2ccc(-c3cc(-c4ccccc4)nc(N)n3)c(O)c2)nn1 0

====

target: Serine/threonine-protein kinase PknG (Mycobacterium tuberculosis) (UniProt P9WI73); test: Inhibition of Mycobacterium tuberculosis recombinant PKnG expressed in Escherichia coli BL21 (DE3) cells using myelin basic protein substrate at 12.5 uM by luciferase activity based ADP-Glo-luminescent kinase assay
Observable: inhibition (%)
Could you give me the number in %? Just the number is fine.

Give its inhibition value. Item: NC(=O)C1=C(NC(=O)C2CC2)CC2=C1CCCC2 12

Give its inhibition value. Item: COc1ccc(-c2cc(-c3ccc(OCc4cn(Cc5ccccc5)nn4)cc3O)nc(N)n2)cc1 10

Give its inhibition value. Item: Nc1nc(-c2ccc(OCc3cn(Cc4ccc(Br)cc4)nn3)cc2O)cc(-c2cccc3ccccc23)n1 0

Give its inhibition value. Item: Nc1nc(-c2ccc(Cl)cc2)cc(-c2ccc(OCc3cn(Cc4ccccc4)nn3)cc2O)n1 5

Give its inhibition value. Item: Nc1nc(-c2ccccc2)cc(-c2ccc(OCc3cn(Cc4ccccc4)nn3)cc2O)n1 18

====

tested on: Mycolicibacterium aurum; test: Inhibition of FAS2 in recombinant Mycobacterium aurum expressing Mycobacterium tuberculosis H37Rv kas operon in fusion Escherichia coli lacZ gene assessed as increase in beta-galactosidase activity at 50 uM incubated for 12 hrs by lacZ reporter gene assay
Active and inactive are the calls of the source. No cut-off for these calls is given here.
Mark one answer only. Choices: yes (active), no (inactive)

These solved cases illustrate the format of a correct answer.
> print(dat)
                                   compound  label.class
1  O=C(/C=C/c1ccccc1)c1ccc(OCc2cn(Cc3ccccc3)nn2)cc1O          yes
2  O=C1CC(c2ccc(Br)cc2)Oc2cc(OCc3cn(Cc4ccc(Br)cc4)nn3)ccc21 (stereo not given)           no
3  CCCCCCn1cc(COc2ccc(C(=O)/C=C/c3ccc(Br)cc3)c(O)c2)nn1           no
4  CCCCCCn1cc(COc2ccc3c(c2)OC(c2ccc(Br)cc2)CC3=O)nn1 (stereo not given)          yes

Alright, here's another compound for you.
Called result for CC(C)c1ccc(C2CC(=O)c3ccc(OCc4cn(Cc5ccccc5)nn4)cc3O2)cc1 (stereo not given) yes

====

target: Serine/threonine-protein kinase PknG (Mycobacterium tuberculosis); assay: Inhibition of Mycobacterium tuberculosis recombinant PKnG expressed in Escherichia coli BL21 (DE3) cells using myelin basic protein substrate at 100 uM by luciferase activity based ADP-Glo-luminescent kinase assay
The label depends only on inhibition: True if it is at least 30%, False if it is smaller.

These solved cases illustrate the format of a correct answer.
> print(dat)
                           substance.smiles  label.class
1  CCCCCCn1cc(COc2ccc(-c3cc(-c4ccc(Cl)cc4)nc(N)n3)c(O)c2)nn1         True
2  Nc1nc(-c2ccc(OCc3cn(Cc4ccc(Br)cc4)nn3)cc2O)cc(-c2cccc3ccccc23)n1         True
3  Nc1nc(-c2ccccc2)cc(-c2ccc(OCc3cn(Cc4ccccc4)nn3)cc2O)n1        False
4  CCCCCCn1cc(COc2ccc(-c3cc(-c4ccc(OC)cc4)nc(N)n3)c(O)c2)nn1        False
5  CCCCCCn1cc(COc2ccc(-c3cc(-c4c(F)cccc4Cl)nc(N)n3)c(O)c2)nn1        False

Quick check, inhibition >= 30%? Nc1nc(-c2ccc(OCc3cn(Cc4ccccc4)nn3)cc2O)cc(-c2cccc3ccccc23)n1 True

Quick check, inhibition >= 30%? Nc1nc(-c2ccc(Br)cc2)cc(-c2ccc(OCc3cn(Cc4ccc(Br)cc4)nn3)cc2O)n1 False

====

system: Mycolicibacterium aurum; experiment: Inhibition of FAS2 in recombinant Mycobacterium aurum expressing Mycobacterium tuberculosis H37Rv kas operon in fusion Escherichia coli lacZ gene assessed as increase in beta-galactosidase activity at 100 uM incubated for 12 hrs by lacZ reporter gene assay
The source made the active and inactive calls. No cut-off for these calls is given here.
Mark one answer only. Choices: Yes for active, No for inactive

Called result for O=C1CC(c2ccc(Br)cc2)Oc2cc(OCc3cn(Cc4ccc(Br)cc4)nn3)ccc21 (configuration not stated) No

Called result for O=C(/C=C/c1ccccc1)c1ccc(OCc2cn(Cc3ccccc3)nn2)cc1O Yes

Called result for CCCCCCn1cc(COc2ccc3c(c2)OC(c2ccc(OC)cc2)CC3=O)nn1 (configuration not stated) Yes

Called result for O=C(/C=C/c1c(F)cccc1Cl)c1ccc(OCc2cn(Cc3ccc(Br)cc3)nn2)cc1O Yes

Called result for CC(C)c1ccc(C2CC(=O)c3ccc(OCc4cn(Cc5ccccc5)nn4)cc3O2)cc1 (configuration not stated) Yes

Called result for CCCCCCn1cc(COc2ccc3c(c2)OC(c2ccc(Br)cc2)CC3=O)nn1 (configuration not stated) Yes

Called result for CCCCCCn1cc(COc2ccc(C(=O)/C=C/c3c(F)cccc3Cl)c(O)c2)nn1 Yes

====

assay: Toxicity against macrophages incubated for 48 hrs by resazurin dye reduction assay; type: cell-based, Macrophage
In this section we review reported CC50 at 48 h values for a set of molecules.
Could you give me the number in µM? Just the number is fine.

Some molecules with recorded CC50 at 48 h:
> print(dat)
                                   molecule    observable  result.units  reported.result
1  O=C(/C=C/c1ccccc1)c1ccc(OCc2cn(Cc3ccccc3)nn2)cc1O  CC50 at 48 h            µM               80
2  CC(C)c1ccc(C2CC(=O)c3ccc(OCc4cn(Cc5ccccc5)nn4)cc3O2)cc1 (stereo not drawn)  CC50 at 48 h            µM             23.8
3  O=C(/C=C/c1c(F)cccc1Cl)c1ccc(OCc2cn(Cc3ccc(Br)cc3)nn2)cc1O  CC50 at 48 h            µM             65.8

Give its CC50 at 48 h value. Item: CCCCCCn1cc(COc2ccc3c(c2)OC(c2ccc(Br)cc2)CC3=O)nn1 (stereo not drawn) 20.3
